protocol-text: Tumor platinum levels (ICP-MS) in H460 tumor-bearing nude mice
Format: in vivo, mouse
test-context: nude, mouse, in vivo, 4 mg/kg, 24 h
measurement-name: Platinum in tumor (mM/mmole/kg platinum dosed)

1) COCC(=O)[O][Pt]([NH2])([NH2])([Cl])([Cl])[O]C(=O)CCCCCN1C(=O)C=CC1=O = 0.53 mM/mmole/kg platinum dosed

Could you report Platinum in tumor (mM/mmole/kg platinum dosed) for every entry in the following list?
1. CC(=O)[O][Pt]([NH2])([NH2])([Cl])([Cl])[O]C(=O)CCCCCN1C(=O)C=CC1=O
2. CC(=O)[O][Pt]([NH2])([NH2])([Cl])([Cl])[O]C(=O)NCCCCCN1C(=O)C=CC1=O
3. CCNC(=O)[O][Pt]([NH2])([NH2])([Cl])([Cl])[O]C(=O)CCCCCN1C(=O)C=CC1=O

Response:
1. 0.68 mM/mmole/kg platinum dosed
2. 0.51 mM/mmole/kg platinum dosed
3. 0.51 mM/mmole/kg platinum dosed
